# Tested on: HPPD polypeptides
# measurementProtocol: coupled HPPD activity assay: turnover and residual turnover in crude extracts
# Assay type: biochemical, Pseudomonas fluorescens
# conditionContext: 100 μM Cmpd. 1; signal change with inhibitor divided by signal change without inhibitor
Decide by Residual turnover [%]: equal to or exceeding 50% means class 1, less means class 0.

# count of solved cases: 3
molecule | class
50 (protein, mutant HPPD polypeptide) MADLYENPMGLMGFEFIEFASPTPGTLEPIFEIMGFTKVATHRSKNVHLYRQGEINLILNNEPNSIASYFAAEHGPSVCGMAFRVKDSQKAYNRALELGAQPIHIDTGPMELNLPAIKGIGGAPLYLIDRFGEGSSIYDIDFVYLEGVERNPVGAGLKVIDHLTHNVYRGRMVYWANFYEKLFNFREARYFDIKGEYTGLTSKAMSAPDGMIRIPLNEESSKGAGQIEEFLMQFNGEGIQHVAFLTDDLVKTWDALKKIGMRFMTAPSDNYYEMLEGRLPDHGEPVDQLQARGILLDGSSVEGDKRLLLQIFSETLMGPVFFEFIQRKGDDGFGPHSFKVLFEQMERDQVRRGVLTAD | class 0
48 (protein, mutant HPPD polypeptide) MADLYENPMGLMGFEFIEFASPTPGTLEPIFEIMGFTKVATHRSKNVHLYRQGEINLILNNEPNSIASYFAAEHGPSVCGMAFRVKDSQKAYNRALELGAQPIHIDTGPMELNLPAIKGIGGAPLYLIDRFGEGSSIYDIDFVYLEGVERNPVGAGLKVIDHLTHNVYRGRMVYWANFYEKLFNFREARYFDIKGEYTGLTSKAMSAPDGMIRIPLNEESSKGAGQIEEFLMQFNGEGIQHVAFLTDDLVKTWDALKKIGMRFMTAPGDNYYEMLEGRLPDHGEPVDQLQARGILLDGSSVEGDKRLLLQIFSETLMGPVFFEFIQRKGDDGFGPHSFKVLFEQMERDQVRRGVLTAD | class 1
66 (protein, mutant HPPD polypeptide) MADLYENPMGLMGFEFIEFASPTPGTLEPIFEIMGFTKVATHRSKNVHLYRQGEINLILNNEPNSIASYFAAEHGPSVCGMAFRVKDSQKAYNRALELGAQPIHIDTGPMELNLPAIKGIGGAPLYLIDRFGEGSSIYDIDFVYLEGVERNPVGAGLKVIDHLTHNVYRGRMVYWANFYEKLFNFREARYFDIKGEYTGLTSKAMSAPDGMIKIPLNEESSKGAGQIEEFLMQFNGEGIQHVAFLTDDLVKTWDALKKIGMRFMTAPADSYYEMLEGRLPDHGEPVDQLQARGILLDGSSVEGDKRLLLQIFSETLMGPVFFEFIQRKGDDGFGPHSFKVLFEQMERDQVRRGVLTAD | class 1

Please look at the following molecule next.
Input: Assess whether reported Residual turnover [%] for 25 (protein, mutant HPPD polypeptide) MADLYENPMGLMGFEFIEFASPTPGTLEPIFEIMGFTKVATHRSKNVHLYRQGEINLILNNEPNSIASYFAAEHGPSVCGMAFRVKDSQKAYNRALELGAQPIHIDTGPMELNLPAIKGIGGAPLYLIDRFGEGSSIYDIDFVYLEGVERNPVGAGLKVIDHLTHNVYRGRMVYWANFYEKLFNFREARYFDIKGEYTGLTSKAMSAPDGMIRIPLNEESSKGAGQIEEFLMQFNGEGIQHVAFLTDDLVKTWDALKKIGMRFMTAPGDTYYEMLEGRLPDHGEPVDQLQARGILLDGSSVEGDKRLLLQIFSETLMGPVFFEFIQRKGDDGFGPHSFKVLFESIERDQVRRGVLTAD sits at 50% or higher.
Output: class 0
